- experimental-system: UniProt:Q00975
- assay-protocol: SH-SY5Y neuroblastoma FLIPR assay of KCl-evoked calcium responses in presence of nifedipine
- Type: cell-based
- experimental-conditions: SH-SY5Y cells, 90 mM KCl and 5 mM CaCl2, 10 µM nifedipine, 5 min pre-treatment
assay-metric: logIC50

compound | reported-result
Cl.N=C(N)NCCCOc1ccc(C(=O)Nc2ccccc2Oc2ccc(F)cc2)cc1 [6a] | –3.90
NCCCOc1ccc(C(=O)Nc2cccc(Oc3ccc(F)cc3)c2)cc1 [5b] | –4.45
NCCCOc1ccc(C(=O)Nc2ccccc2Oc2ccc(F)cc2)cc1 [5a] | –4.34
Cl.N=C(N)NCCCOc1ccc(C(=O)Nc2cccc(Oc3ccc(F)cc3)c2)cc1 [6b] | –3.73
Cl.N=C(N)NCCCOc1ccc(C(=O)Nc2ccc(Oc3ccc(F)cc3)cc2)cc1 [6c] | –3.14

* * *

- experimental-system: human Cav2.2 channels (Homo sapiens, UniProt Q00975)
- Sequence (Q00975 whole entry): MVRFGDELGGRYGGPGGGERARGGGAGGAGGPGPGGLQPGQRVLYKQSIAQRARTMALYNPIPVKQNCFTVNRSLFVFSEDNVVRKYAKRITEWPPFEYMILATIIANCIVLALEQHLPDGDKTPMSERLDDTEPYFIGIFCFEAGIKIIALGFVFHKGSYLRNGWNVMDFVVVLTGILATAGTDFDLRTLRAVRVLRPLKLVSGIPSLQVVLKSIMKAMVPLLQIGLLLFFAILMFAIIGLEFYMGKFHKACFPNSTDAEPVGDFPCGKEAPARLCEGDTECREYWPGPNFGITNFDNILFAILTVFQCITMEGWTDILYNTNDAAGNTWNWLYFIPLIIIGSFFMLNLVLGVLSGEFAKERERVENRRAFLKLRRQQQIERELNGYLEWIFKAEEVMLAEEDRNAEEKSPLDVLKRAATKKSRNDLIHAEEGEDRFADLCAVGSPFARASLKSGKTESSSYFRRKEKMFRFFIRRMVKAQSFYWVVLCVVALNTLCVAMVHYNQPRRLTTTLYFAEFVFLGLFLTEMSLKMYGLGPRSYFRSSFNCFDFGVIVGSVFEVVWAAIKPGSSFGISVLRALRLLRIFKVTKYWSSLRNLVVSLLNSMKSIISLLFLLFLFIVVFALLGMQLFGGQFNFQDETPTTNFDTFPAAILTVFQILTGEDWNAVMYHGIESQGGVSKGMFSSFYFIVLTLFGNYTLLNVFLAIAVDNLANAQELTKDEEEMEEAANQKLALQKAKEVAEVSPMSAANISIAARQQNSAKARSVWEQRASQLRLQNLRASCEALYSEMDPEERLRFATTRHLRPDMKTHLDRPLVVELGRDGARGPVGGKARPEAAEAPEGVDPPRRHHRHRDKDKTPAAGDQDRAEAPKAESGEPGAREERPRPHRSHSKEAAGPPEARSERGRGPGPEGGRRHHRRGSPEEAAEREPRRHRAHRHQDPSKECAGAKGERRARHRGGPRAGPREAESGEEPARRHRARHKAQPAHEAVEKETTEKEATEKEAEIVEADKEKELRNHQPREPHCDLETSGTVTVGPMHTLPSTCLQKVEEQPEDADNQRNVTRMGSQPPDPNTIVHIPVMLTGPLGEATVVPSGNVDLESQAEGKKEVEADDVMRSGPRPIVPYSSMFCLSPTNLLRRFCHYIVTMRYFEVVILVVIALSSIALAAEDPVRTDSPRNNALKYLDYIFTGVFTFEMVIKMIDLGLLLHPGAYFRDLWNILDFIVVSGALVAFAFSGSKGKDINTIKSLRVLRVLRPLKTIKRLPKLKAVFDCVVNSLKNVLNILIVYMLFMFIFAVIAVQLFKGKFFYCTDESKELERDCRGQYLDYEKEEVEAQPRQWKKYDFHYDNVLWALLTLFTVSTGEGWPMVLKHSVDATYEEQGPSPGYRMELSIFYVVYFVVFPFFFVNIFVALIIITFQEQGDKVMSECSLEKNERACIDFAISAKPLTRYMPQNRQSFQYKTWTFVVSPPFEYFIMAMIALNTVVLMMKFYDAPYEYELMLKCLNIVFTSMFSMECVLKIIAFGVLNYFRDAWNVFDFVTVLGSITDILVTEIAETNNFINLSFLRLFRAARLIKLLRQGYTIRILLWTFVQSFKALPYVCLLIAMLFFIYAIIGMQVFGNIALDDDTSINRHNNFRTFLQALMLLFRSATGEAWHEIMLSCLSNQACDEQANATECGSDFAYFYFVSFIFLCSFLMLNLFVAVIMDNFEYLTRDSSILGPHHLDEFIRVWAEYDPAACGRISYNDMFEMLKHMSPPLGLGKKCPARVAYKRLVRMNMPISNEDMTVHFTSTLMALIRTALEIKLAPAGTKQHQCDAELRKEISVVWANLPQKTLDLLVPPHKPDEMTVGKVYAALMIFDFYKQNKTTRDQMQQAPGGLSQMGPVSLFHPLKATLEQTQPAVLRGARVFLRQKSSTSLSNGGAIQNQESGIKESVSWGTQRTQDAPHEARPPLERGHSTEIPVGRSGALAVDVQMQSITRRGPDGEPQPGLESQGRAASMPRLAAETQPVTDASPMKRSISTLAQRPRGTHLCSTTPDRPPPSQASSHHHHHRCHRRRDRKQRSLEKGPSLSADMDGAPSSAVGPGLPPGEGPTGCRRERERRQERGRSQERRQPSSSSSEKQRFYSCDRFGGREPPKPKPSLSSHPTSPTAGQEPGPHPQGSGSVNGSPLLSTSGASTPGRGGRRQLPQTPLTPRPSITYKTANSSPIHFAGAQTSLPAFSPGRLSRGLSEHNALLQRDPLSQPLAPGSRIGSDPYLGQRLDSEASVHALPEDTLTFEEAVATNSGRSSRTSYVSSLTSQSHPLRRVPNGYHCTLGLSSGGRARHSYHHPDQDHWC
- Sequence (P54284 whole entry partner): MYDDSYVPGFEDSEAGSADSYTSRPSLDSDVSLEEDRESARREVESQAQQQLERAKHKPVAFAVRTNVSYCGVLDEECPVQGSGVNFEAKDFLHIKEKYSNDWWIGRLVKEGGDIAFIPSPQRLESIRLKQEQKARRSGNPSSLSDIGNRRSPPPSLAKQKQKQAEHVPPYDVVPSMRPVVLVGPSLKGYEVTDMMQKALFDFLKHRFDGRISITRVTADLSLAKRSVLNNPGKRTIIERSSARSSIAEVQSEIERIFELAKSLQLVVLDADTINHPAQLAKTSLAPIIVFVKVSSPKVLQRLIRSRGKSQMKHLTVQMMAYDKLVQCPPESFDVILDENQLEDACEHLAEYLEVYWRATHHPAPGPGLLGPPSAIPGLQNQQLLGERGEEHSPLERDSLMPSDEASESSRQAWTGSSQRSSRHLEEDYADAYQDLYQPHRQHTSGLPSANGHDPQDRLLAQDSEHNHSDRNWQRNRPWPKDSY
- Sequence (P54289 25-956 partner limits assumed): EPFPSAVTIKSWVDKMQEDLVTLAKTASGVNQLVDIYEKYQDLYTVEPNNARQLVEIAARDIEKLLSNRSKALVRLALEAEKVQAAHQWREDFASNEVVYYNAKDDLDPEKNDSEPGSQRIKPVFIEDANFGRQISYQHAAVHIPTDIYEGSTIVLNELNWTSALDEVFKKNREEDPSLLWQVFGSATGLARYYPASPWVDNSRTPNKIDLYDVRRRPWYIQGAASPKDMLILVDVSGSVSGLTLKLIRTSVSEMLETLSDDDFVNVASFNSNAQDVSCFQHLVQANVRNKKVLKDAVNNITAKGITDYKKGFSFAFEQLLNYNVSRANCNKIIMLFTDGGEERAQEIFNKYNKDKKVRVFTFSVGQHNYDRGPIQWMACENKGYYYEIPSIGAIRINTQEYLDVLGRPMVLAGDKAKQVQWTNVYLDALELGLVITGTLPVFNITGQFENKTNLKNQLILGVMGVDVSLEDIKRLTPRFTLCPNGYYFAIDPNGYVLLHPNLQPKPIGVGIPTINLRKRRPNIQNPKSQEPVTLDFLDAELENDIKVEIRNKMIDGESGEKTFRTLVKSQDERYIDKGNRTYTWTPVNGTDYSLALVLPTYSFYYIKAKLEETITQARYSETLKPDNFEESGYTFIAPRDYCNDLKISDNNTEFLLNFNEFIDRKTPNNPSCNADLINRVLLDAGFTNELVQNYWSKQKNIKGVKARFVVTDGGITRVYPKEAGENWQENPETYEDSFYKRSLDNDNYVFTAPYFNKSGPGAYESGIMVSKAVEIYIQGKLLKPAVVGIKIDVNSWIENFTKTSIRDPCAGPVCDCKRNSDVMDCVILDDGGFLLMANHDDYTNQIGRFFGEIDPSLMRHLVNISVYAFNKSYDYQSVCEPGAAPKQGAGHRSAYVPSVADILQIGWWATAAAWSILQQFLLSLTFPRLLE
- Sequence (P54289 957-1103 partner limits assumed): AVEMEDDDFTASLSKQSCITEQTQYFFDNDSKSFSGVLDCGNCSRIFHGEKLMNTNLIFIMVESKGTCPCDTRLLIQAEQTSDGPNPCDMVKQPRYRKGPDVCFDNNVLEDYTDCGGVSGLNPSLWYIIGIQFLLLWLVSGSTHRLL
- assay-protocol: SH-SY5Y neuroblastoma FLIPR assay of KCl-evoked calcium responses in presence of nifedipine
- Assay type: cell-based
- experimental-conditions: SH-SY5Y cells, in words
assay-metric: extent of inhibition of KCl-induced Ca2+ responses

compound | reported-result
NCCCOc1ccc(C(=O)Nc2ccccc2Oc2ccc(F)cc2)cc1 [5a] | fully blocked
NCCCOc1ccc(C(=O)Nc2cccc(Oc3ccc(F)cc3)c2)cc1 [5b] | fully blocked

* * *

- experimental-system: human Cav2.2 channels (Homo sapiens, UniProt Q00975)
- assay-protocol: SH-SY5Y neuroblastoma FLIPR assay of KCl-evoked calcium responses in presence of nifedipine
- Type: cell-based
- experimental-conditions: SH-SY5Y; at 300 µM; read-out: % Max inhibition
inhibition at 300 µM listing for selected molecules.

molecule | inhibition at 300 µM
Cl.N=C(N)NCCCOc1ccc(C(=O)Nc2ccc(Oc3ccc(F)cc3)cc2)cc1 | 19%
NCCCOc1ccc(C(=O)Nc2ccc(Oc3ccc(F)cc3)cc2)cc1 | 30%
N=C(N)NCCCCCCCC(=O)Nc1ccc(OCCCNC(=N)N)cc1C(=O)Nc1ccc(Oc2ccc(F)cc2)cc1 [compound 3, reference compound] | 15%
Cl.N=C(N)NCCCOc1ccc(C(=O)Nc2ccccc2Oc2ccc(F)cc2)cc1 | 65%
